Molecular target: AHR (Homo sapiens, UniProt P35869)
Construct: U87 MG glioblastoma cells (ATCC #HTB-14) endogenously expressing AHR; endogenous in cells; host or cells: U87 MG glioblastoma cells (ATCC #HTB-14)
Sequence (P35869 11-848): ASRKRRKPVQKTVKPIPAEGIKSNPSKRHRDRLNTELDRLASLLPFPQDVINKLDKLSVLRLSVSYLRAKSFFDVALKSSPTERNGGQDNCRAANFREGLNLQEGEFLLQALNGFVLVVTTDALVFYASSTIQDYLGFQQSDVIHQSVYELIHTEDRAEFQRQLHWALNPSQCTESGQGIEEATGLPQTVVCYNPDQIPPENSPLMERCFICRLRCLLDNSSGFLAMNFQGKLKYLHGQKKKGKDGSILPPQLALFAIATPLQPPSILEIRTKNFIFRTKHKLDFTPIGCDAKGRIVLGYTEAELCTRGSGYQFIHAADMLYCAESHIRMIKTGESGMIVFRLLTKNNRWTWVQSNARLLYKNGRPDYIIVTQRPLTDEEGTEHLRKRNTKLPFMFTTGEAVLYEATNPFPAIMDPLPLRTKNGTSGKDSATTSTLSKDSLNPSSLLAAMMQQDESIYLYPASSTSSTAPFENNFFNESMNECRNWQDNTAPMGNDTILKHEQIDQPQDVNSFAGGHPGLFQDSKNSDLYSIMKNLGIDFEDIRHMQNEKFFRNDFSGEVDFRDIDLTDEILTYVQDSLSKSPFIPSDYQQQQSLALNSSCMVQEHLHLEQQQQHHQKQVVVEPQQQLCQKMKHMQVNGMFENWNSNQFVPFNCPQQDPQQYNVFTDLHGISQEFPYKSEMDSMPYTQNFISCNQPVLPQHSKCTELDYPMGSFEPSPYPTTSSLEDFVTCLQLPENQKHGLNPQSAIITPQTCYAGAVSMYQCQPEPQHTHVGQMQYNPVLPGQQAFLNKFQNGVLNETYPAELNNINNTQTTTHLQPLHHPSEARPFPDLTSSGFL
Assay: In vitro assay 1: antagonism in human cell line (AHR transactivation, firefly luciferase reporter, kynurenic acid prestimulated)
Type: cell-based
Conditions: AHR Antagonism Human IC50 [M]
Experimental: Examples were tested in selected biological assays one or more times. […] Firefly luciferase and Renilla activity was determined by the DualGlo Luciferase Assay System (Promega, #2920). […]
Measured property: IC50 (M)

Smiles representation: Cc1ccccc1-c1nc2c3ccccc3nc(N[C@H]3CCCCNC3=O)n2n1
Measured property: IC50
Unit of measurement: M
Readout value: 2.12e-08

I = CN(C)CCn1cc(-c2nc3c4ccccc4nc(N[C@@H]4CCCCNC4=O)n3n2)cn1
II = Cn1nccc1-c1nc2c3ccccc3nc(N[C@@H]3CCCCNC3=O)n2n1
III = COc1ccc(-c2nc3c4cccc(Br)c4nc(N[C@@H]4CCCNC4=O)n3n2)cc1
Arrange the 3 compounds from largest to smallest IC50. Write the labels, ordered according to the request.
I, III, II
(I: 5.81e-07 M, III: 5.32e-08 M, II: 6.42e-09 M)
